Value source: patent US8338451B2

- ASSAYED_SYSTEM: mouse Nurr1 receptor (Mus musculus)
- Construct: a cell line (N2A) endogenously expressing the mouse Nurr1 receptor
- Sequence (Q06219 whole entry): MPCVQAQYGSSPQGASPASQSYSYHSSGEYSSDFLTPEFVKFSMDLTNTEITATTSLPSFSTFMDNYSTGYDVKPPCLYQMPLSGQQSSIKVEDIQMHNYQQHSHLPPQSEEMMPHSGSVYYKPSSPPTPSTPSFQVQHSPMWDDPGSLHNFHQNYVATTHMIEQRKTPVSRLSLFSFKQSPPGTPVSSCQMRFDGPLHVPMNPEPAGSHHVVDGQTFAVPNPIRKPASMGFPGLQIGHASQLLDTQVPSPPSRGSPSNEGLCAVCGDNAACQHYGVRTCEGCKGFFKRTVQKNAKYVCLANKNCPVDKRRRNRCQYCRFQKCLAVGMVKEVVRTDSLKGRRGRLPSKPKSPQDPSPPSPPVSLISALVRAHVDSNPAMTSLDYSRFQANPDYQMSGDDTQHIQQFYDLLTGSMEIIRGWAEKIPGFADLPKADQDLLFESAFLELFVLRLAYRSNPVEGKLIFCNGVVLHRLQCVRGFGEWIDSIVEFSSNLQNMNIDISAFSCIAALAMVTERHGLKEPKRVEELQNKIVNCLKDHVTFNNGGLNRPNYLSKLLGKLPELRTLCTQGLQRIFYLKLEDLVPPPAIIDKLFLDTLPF
- PROTOCOL_DESCRIPTION: In vitro activity on N2A cells: NBRE-luciferase reporter (NOT/Nurr1 modulation)
- MEASUREMENT_CONTEXT: N2A (Neuro-2A) cells stably transfected with 8NBRE-luciferase, 24 hours incubation
REPORTED_METRIC: pEC50
API: returns pEC50 as number; meaning -log10 of concentration in mol/L.

State the recorded pEC50 for this entry: `CC(C)(O)c1cccc(-c2ccc3nc(-c4ccccn4)cn3c2)c1` 6.69

Entry `OCc1c(F)ccc(-c2ccc3nc(-c4cc5ccccc5o4)cn3c2)c1F` : reported pEC50 = ? 8.30

What measured pEC50 goes with `OCc1c(F)cccc1-c1ccc2nc(-c3cccs3)cn2c1` ? 7.70

Sample `Cc1cc(-c2cn3cc(-c4cccc(C(C)(C)O)c4)ccc3n2)no1` — what was its pEC50? 7.15

Quick one: pEC50 of `OCc1cccc(-c2ccc3nc(-c4cccnc4)cn3c2)c1` ? 8.80

Any idea what its pEC50 is? The compound is `OCc1ccc(-c2ccc3nc(-c4coc5ccccc45)cn3c2)cc1` 7.30

I would be grateful if you could share the reported pEC50 for `OCc1cccc(-c2ccc3nc(-c4ccc5c(c4)OCO5)cn3c2)c1` . 9.05
